- tested_on: cathepsin L (Homo sapiens, UniProt P07711)
- Sequence (P07711 114-333): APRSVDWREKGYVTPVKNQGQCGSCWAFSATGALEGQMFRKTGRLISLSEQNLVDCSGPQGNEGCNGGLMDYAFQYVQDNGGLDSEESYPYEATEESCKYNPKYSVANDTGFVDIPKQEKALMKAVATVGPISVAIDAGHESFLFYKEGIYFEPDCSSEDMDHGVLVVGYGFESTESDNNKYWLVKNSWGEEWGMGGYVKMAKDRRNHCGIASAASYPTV
- Format: biochemical
- Design: human cathepsin L purified from human liver (Sigma Aldrich); purchased Sigma Aldrich; host or cells: human liver (tissue-purified)
reported_property: Inhibition of cleavage of SARS peptide by Cathepsin-L (%)
One number for each entry, in %.

A selection of reference data follows.
>>> val("O=C(Nc1cccc(C(F)(F)F)c1)Nc1ccc(Cl)c(Cl)c1")
78.1
>>> val("O=C(Nc1nc(-c2ccccc2)cs1)c1cc(-n2cnnc2)ccc1Cl")
36.8
>>> val("O=C(Nc1ccc(F)c(Cl)c1)Nc1nnc(C(F)(F)F)s1")
55.8

Please supply Inhibition of cleavage of SARS peptide by Cathepsin-L for each of the following items, keeping them in order.
1. Cl.c1ccc(CNC2CCCc3c2[nH]c2ccc(-c4ccccc4)cc32)cc1 (stereo not drawn)
2. O=C(Nc1cccnc1)c1cc2cc(Br)ccc2oc1=O
3. O=c1[nH]c2ccc(S(=O)(=O)Nc3ccc(Cl)c(Cl)c3)cc2o1
4. CNS(=O)(=O)c1ccc(NC(=O)Nc2ccc(F)c(Cl)c2)cc1

94.6
37.7
71.7
49.3

Please supply Inhibition of cleavage of SARS peptide by Cathepsin-L for each of the following items, keeping them in order.
1. COc1ccc(OC)c(NC(=O)Nc2ccc(C(F)(F)F)cc2)c1
2. O=C(Nc1ccc(S(=O)(=O)N2CCOCC2)cc1)Nc1ccc(F)c(Cl)c1

69.2
69.6

====

- tested_on: cathepsin L (Homo sapiens)
- Assay type: biochemical
- Design: human cathepsin L purified from human liver (Sigma Aldrich); purchased Sigma Aldrich; host or cells: human liver (tissue-purified)
Provide the reported percentage inhibition against Hendra peptide of each item.
One number for each entry, in %.

>>> val("Cc1c(C#N)c2ccccc2n1CC(=O)NCc1ccc2c(c1)OCO2 [Compound 6874634]")
22.7

Please supply percentage inhibition against Hendra peptide for each of the following items, keeping them in order.
1. O=C(Nc1ccc2c(c1)OCO2)c1cc(-c2cccnc2)nc2ccc(Cl)cc12 [Compound 7924029]
2. O=c1[nH]c2ccc(S(=O)(=O)Nc3ccc(Cl)c(Cl)c3)cc2o1 [Compound 7914021]
3. COC(=O)CN(C#N)c1nc(NC(C)C)nc(NC(C)C)n1 [Compound 5705213]
4. N#CSc1ccc(NC(=O)CSc2nc3ccccc3[nH]2)cc1 [Compound 6572698]
5. Cc1cnn(CCCNC(=O)c2cc(-c3cccnc3)nc3ccc(Cl)cc23)c1 [Compound 7923236]
6. O=C(Nc1ccc(S(=O)(=O)N2CCOCC2)cc1)Nc1ccc(F)c(Cl)c1 [Compound 7798500]
7. O=C(Nc1ccc(F)c(Cl)c1)Nc1nnc(C(F)(F)F)s1 [Compound 7940158]

1. 45.6
2. 52.2
3. 94.2
4. 24.8
5. 59
6. 30.4
7. 19

====

- tested_on: cathepsin L (Homo sapiens, UniProt P07711)
- Format: biochemical
- Parameters: human cathepsin L purified from human liver (Sigma Aldrich); purchased Sigma Aldrich; host or cells: human liver (tissue-purified)
Provide the reported Inhibition of cleavage of Ebola peptide by Cathepsin-L of each item.
One number for each entry, in %.

A selection of reference data follows.
>>> val("Cc1c(Sc2nc3ccccc3[nH]2)c(=O)[nH]c2cc3c(cc12)OCO3")
"−3.8"
>>> val("Cc1ccc(-c2nc3ccccc3[nH]2)cc1NC(=O)c1ccc2c(c1)OCO2")
"−3.4"
>>> val("O=C(Nc1cccc(C(F)(F)F)c1)Nc1ccc(Cl)c(Cl)c1")
31
>>> val("COC(=O)CN(C#N)c1nc(NC(C)C)nc(NC(C)C)n1")
42

// switching to the query molecule
Hello, I am looking for reported Inhibition of cleavage of Ebola peptide by Cathepsin-L with cathepsin L (Homo sapiens, UniProt P07711) for `Cc1cc(C(=O)Nc2cccnc2)sc1-c1ccccc1` . Could you help?
25.2

====

- Test system: EBOV-GP pseudotyped virus
- assay_summary: microbe, parasite or virus in culture
- Assay type: cell-based, Ebola virus
- experimental_setup: read-out: IC50 against EBOV pseudotyped virus
reported_property: IC50 (µM)
One number for each entry, in µM.

What does the data say about its IC50? Entry: `CCNc1nc(NC(C)(C)C)nc(N(C#N)CC(=O)OC)n1`
10

====

- tested_on: cathepsin L (Homo sapiens)
- Assay type: biochemical
- Parameters: human cathepsin L purified from human liver (Sigma Aldrich); purchased Sigma Aldrich; host or cells: human liver (tissue-purified)
Categorize each record by its Inhibition of cleavage of NPY peptide by Cathepsin-L using category 1 = under 6%, category 2 = from 6% up to 10%, category 3 = 10% and over

Please review the following examples before continuing.
>>> category("O=C(Nc1ccc(F)c(Cl)c1)Nc1nnc(C(F)(F)F)s1 [Compound 7940158]")
"category 1"
>>> category("Cc1c(C#N)c2ccccc2n1CC(=O)NCc1ccc2c(c1)OCO2 [Compound 6874634]")
"category 3"
>>> category("COc1ccc(OC)c(NC(=O)Nc2ccc(C(F)(F)F)cc2)c1 [Compound 7808526]")
"category 1"
>>> category("O=C(Nc1cccc(C(F)(F)F)c1)Nc1ccc(Cl)c(Cl)c1 [Compound 5182554]")
"category 2"
>>> category("O=C(Nc1ccc2c(c1)OCO2)c1cc(-c2cccnc2)nc2ccc(Cl)cc12 [Compound 7924029]")
"category 3"

Lab note: sort N#Cc1ccc(NC(=O)Nc2ccc(Cl)cc2)cc1 [Compound 7910528, 1-(4-chlorophenyl)-3-(4-cyanophenyl)urea] into the matching Inhibition of cleavage of NPY peptide by Cathepsin-L band.
category 2

Lab note: sort O=C(Nc1cccnc1)c1cc2cc(Br)ccc2oc1=O [Compound 7947992] into the matching Inhibition of cleavage of NPY peptide by Cathepsin-L band.
category 3

Lab note: sort Cc1c(Sc2nc3ccccc3[nH]2)c(=O)[nH]c2cc3c(cc12)OCO3 [Compound 7665576] into the matching Inhibition of cleavage of NPY peptide by Cathepsin-L band.
category 1

====

- tested_on: cathepsin L (Homo sapiens)
- Type: biochemical
- Design: human cathepsin L purified from human liver (Sigma Aldrich); purchased Sigma Aldrich; host or cells: human liver (tissue-purified)
reported_property: Inhibition of cleavage of Hendra peptide by Cathepsin-L (%)
One number for each entry, in %.

>>> val("Cc1ccc(-c2nc3ccccc3[nH]2)cc1NC(=O)c1ccc2c(c1)OCO2 [Compound 7793889]")
"−7.77"

Please supply Inhibition of cleavage of Hendra peptide by Cathepsin-L for each of the following items, keeping them in order.
1. CN(C)c1ccc(C(O)(c2ccc(N(C)C)cc2)c2ccc(N(C)C)cc2)cc1 [Compound 5152606]
2. O=C(Nc1ccc(F)c(Cl)c1)Nc1nnc(C(F)(F)F)s1 [Compound 7940158]
3. O=C(Nc1cccc(C(F)(F)F)c1)Nc1ccc(Cl)c(Cl)c1 [Compound 5182554]

1: 108.40; 2: 26.2; 3: 49.4

====

- tested_on: cathepsin L (Homo sapiens, UniProt P07711)
- Format: biochemical
- Set-up: human cathepsin L purified from human liver (Sigma Aldrich); purchased Sigma Aldrich; host or cells: human liver (tissue-purified)
Note to self: values exactly at 70% are yes. So percentage inhibition against SARS peptide at or above 70% is yes, below is no.

Please review the following examples before continuing.
>>> category("O=C(Nc1nc(-c2ccccc2)cs1)c1cc(-n2cnnc2)ccc1Cl")
"no"
>>> category("N#CSc1ccc(NC(=O)CSc2nc3ccccc3[nH]2)cc1")
"no"
>>> category("O=C(Nc1ccc(F)c(Cl)c1)Nc1nnc(C(F)(F)F)s1")
"no"
>>> category("O=C(Nc1ccc(S(=O)(=O)N2CCOCC2)cc1)Nc1ccc(F)c(Cl)c1")
"no"
>>> category("Cl.c1ccc(CNC2CCCc3c2[nH]c2ccc(-c4ccccc4)cc32)cc1 (stereo not drawn)")
"yes"
>>> category("Cc1c(C#N)c2ccccc2n1CC(=O)NCc1ccc2c(c1)OCO2")
"no"
>>> category("O=C(Nc1cccc(C(F)(F)F)c1)Nc1ccc(Cl)c(Cl)c1")
"yes"
>>> category("COC(=O)CN(C#N)c1nc(NC(C)C)nc(NC(C)C)n1")
"yes"

Has `N#Cc1ccc(NC(=O)Nc2ccc(Cl)cc2)cc1` a recorded percentage inhibition against SARS peptide greater than or equal to 70%?
no

Has `Cc1cnn(CCCNC(=O)c2cc(-c3cccnc3)nc3ccc(Cl)cc23)c1` a recorded percentage inhibition against SARS peptide greater than or equal to 70%?
no

Has `O=c1[nH]c2ccc(S(=O)(=O)Nc3ccc(Cl)c(Cl)c3)cc2o1` a recorded percentage inhibition against SARS peptide greater than or equal to 70%?
yes

====

- tested_on: UniProt:P07711
- Format: biochemical
- Design: human cathepsin L purified from human liver (Sigma Aldrich); purchased Sigma Aldrich; host or cells: human liver (tissue-purified)
Note to self: values exactly at 80% are Yes. So percentage inhibition against Nipah peptide at or above 80% is Yes, below is No.

Please review the following examples before continuing.
>>> category("O=C(Nc1cccc(C(F)(F)F)c1)Nc1ccc(Cl)c(Cl)c1 [Compound 5182554]")
"No"
>>> category("O=C(Nc1ccc(S(=O)(=O)N2CCOCC2)cc1)Nc1ccc(F)c(Cl)c1 [Compound 7798500]")
"No"
>>> category("Cl.c1ccc(CNC2CCCc3c2[nH]c2ccc(-c4ccccc4)cc32)cc1 (centres unmarked) [Compound 5219666]")
"Yes"
>>> category("O=C(Nc1nc(-c2ccccc2)cs1)c1cc(-n2cnnc2)ccc1Cl [Compound 7931205]")
"No"

Shift focus to the following entry.
Has COC(=O)CN(C#N)c1nc(NC(C)C)nc(NC(C)C)n1 [Compound 5705213] a recorded percentage inhibition against Nipah peptide greater than or equal to 80%?
Yes
